target: UGT1A7 (Homo sapiens); experiment: UGT1A7 supersomes-catalyzed 4-MU glucuronidation inhibition; settings: 50 μM PC components; recombinant human UGT; mean of triplicate
Sequence (Q9HAW7 26-530): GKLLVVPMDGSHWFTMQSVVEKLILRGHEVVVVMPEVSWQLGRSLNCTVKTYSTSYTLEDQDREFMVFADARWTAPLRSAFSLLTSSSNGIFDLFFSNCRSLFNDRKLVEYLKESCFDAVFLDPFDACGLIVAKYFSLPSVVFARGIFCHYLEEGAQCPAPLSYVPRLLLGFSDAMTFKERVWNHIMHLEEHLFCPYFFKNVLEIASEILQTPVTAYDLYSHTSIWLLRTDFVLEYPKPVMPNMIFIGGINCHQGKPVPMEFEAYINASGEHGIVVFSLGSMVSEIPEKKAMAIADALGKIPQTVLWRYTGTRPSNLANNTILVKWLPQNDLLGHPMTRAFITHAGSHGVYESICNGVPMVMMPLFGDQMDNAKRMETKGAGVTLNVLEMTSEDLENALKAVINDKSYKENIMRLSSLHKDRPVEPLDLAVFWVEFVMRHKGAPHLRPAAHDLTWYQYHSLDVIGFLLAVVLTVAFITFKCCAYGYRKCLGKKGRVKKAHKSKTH
Examples of compounds with documented residual activity 1A7 follow.
Enter your answer as a number in %; do not include the unit.

Record excerpt, results attached:
{"structure": "CC/C=C\\C/C=C\\C/C=C\\C/C=C\\C/C=C\\C/C=C\\CCC(=O)O[C@H](COC(=O)CCCCCCCCCCCCCCCCC)COP(=O)([O-])OCC[N+](C)(C)C", "residual activity 1A7, %": 167.9}
{"structure": "CCCCCCCCCCCCC(=O)OC[C@H](COP(=O)([O-])OCC[N+](C)(C)C)OC(=O)CCCCCCCCCCCC", "residual activity 1A7, %": 160.6}
{"structure": "CCCCCCCCCCC(=O)OC[C@H](COP(=O)([O-])OCC[N+](C)(C)C)OC(=O)CCCCCCCCCC", "residual activity 1A7, %": 175.5}

What does the data say about its residual activity 1A7? Entry: CCCCCCCCCCCCCCCCCCCCCC(=O)OC[C@H](COP(=O)([O-])OCC[N+](C)(C)C)OC(=O)CCCCCCCCCCCCCCCCCCCCC
86.2

Record request: residual activity 1A7 value, item CCCCCCCCCCCCCC(=O)OC[C@H](COP(=O)([O-])OCC[N+](C)(C)C)OC(=O)CCCCCCCCCCCCC
162.3
